TARGET_OF_ASSAY: STAT6 (Homo sapiens, UniProt P42226)
Construct: stably transfected HaCaT keratinocyte cell line, which expresses NanoLuc luciferase reporter gene under the transcriptional control of the STAT6 responsive promoter; endogenous in cells; host or cells: HaCaT keratinocyte reporter cell line (stably transfected with a NanoLuc reporter)
Sequence (P42226 1-847): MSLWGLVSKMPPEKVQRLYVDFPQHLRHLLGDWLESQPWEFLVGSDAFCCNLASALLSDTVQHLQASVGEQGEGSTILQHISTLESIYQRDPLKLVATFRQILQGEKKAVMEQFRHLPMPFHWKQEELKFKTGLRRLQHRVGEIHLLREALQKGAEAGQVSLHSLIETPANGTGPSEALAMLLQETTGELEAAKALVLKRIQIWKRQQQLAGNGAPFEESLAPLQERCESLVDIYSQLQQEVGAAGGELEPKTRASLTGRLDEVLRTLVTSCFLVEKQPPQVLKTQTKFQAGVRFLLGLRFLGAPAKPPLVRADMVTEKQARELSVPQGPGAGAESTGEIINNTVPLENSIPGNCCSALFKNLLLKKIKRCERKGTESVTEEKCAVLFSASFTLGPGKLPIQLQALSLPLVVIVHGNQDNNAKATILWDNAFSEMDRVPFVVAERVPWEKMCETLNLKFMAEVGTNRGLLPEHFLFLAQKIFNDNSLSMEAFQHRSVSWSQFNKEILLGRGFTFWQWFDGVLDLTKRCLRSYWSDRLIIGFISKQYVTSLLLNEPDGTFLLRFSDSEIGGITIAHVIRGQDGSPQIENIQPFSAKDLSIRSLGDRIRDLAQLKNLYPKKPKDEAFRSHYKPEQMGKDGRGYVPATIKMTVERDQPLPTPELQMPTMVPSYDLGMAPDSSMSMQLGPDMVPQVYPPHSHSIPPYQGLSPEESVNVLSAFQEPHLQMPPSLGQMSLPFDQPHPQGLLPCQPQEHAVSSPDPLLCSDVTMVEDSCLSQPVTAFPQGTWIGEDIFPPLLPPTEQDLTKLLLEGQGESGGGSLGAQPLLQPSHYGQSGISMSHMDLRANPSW
ASSAY_NAME: STAT6 Reporter Luciferase Assay (IL-13 stimulated HaCaT keratinocyte NanoLuc reporter cells)
Assay type: cell-based
RUN_CONDITIONS: IL-13 stimulated HaCaT STAT6 NanoLuc reporter cells; read-out: Reporter EC50
OBSERVATION_TYPE: EC50 (nM)

A: COCC1CCN(C(=O)c2ccc(N3CCc4c(c(C(=O)NCc5ccc(NC(=O)N(C)C)cc5)nn4C(C)C)C3)nc2)C1 (racemic)
B: COC[C@@H]1CCCN1C(=O)c1ccc(N2CCc3c(c(C(=O)NCc4ccc(NC(=O)N(C)C)cc4)nn3C(C)C)C2)nc1
C: CNC(=O)c1ccc(CNC(=O)c2nn(C(C)C)c3c2CN(c2ccc(C(=O)N(C)C)cn2)CC3C(F)(F)F)cc1 (single isomer, unassigned) [Example 356]
D: CCn1nc(C(=O)NCc2ccc(C(N)=O)cc2)c2c1[C@@H](C)CN(c1ccc(N3CCCC3=O)cn1)C2
Rank the items above by EC50, largest value first. Use the labels to give the ranking in the order requested.
B, A, C, D

I: CC(C)n1nc(C(=O)NCc2ccc(C(=O)NC3CCN(C)CC3)cc2)c2c1[C@@H](C)CN(c1ccc(C(=O)N(C)C)cn1)C2
II: CC(C)n1nc(C(=O)NCc2ccc(NC(=O)N3CCN(C)CC3)cc2)c2c1[C@@H](C)CN(c1ccc(-c3nccn3C3CC3)cn1)C2
III: CC(C)n1nc(C(=O)NCc2ccc(NC(=O)N(C)C)cc2)c2c1CCN(c1ccc(C(=O)N3CCC(C)(C#N)C3)cn1)C2 (stereo not shown)
IV: CNC(=O)Nc1ccc(CNC(=O)c2nn(C(C)C)c3c2CN(c2ncc(-c4nccn4C)cn2)C[C@@H]3C)cc1 (single isomer, unassigned)
Arrange these compounds by their EC50, starting with the largest number. Use the labels to give the ranking in the order requested.
III, I, II, IV

1: CC(C)n1nc(C(=O)NCc2ccc(NC(=O)N(C)C)cc2)c2c1CC(C(F)(F)F)N(c1ccc(C(=O)N(C)C)cn1)C2 (racemic) [Example 255]
2: COc1ccc2c(n1)CCN(C(=O)c1ccc(N3CCc4c(c(C(=O)NCc5ccc(NC(=O)N(C)C)cc5)nn4C(C)C)C3)nc1)C2
Choose between 1 and 2 : whose measured EC50 value is numerically larger? Answer by stating the label of the chosen item.
2
(2: 15 nM, 1: 3 nM)

====

TARGET_OF_ASSAY: STAT6 (Homo sapiens)
Construct: stably transfected HaCaT keratinocyte cell line, which expresses NanoLuc luciferase reporter gene under the transcriptional control of the STAT6 responsive promoter; endogenous in cells; host or cells: HaCaT keratinocyte reporter cell line (stably transfected with a NanoLuc reporter)
ASSAY_NAME: STAT6 Reporter Luciferase Assay (IL-13 stimulated HaCaT keratinocyte NanoLuc reporter cells)
Format: cell-based
RUN_CONDITIONS: IL-13 stimulated HaCaT STAT6 NanoLuc reporter cells; read-out: Reporter EC50
pEC50: −log10 of the molar value.
OBSERVATION_TYPE: pEC50

A: CCn1nc(C(=O)NCc2ccc(NC(=O)N(C)C)cc2)c2c1C(C(F)(F)F)CN(c1ccc(C(=O)N(C)C)cn1)C2 (racemic) [Example 282]
B: CC(C)n1nc(C(=O)NCc2ccc(NC(=O)N(C)CCC(=O)O)c(F)c2)c2c1[C@@H](C)CN(c1ccc(C(=O)N(C)C)cc1)C2
C: CC[C@H]1c2c(C(=O)NCc3ccc(NC(=O)N(C)C)cc3)nn(C(C)C)c2CCN1c1ccc(C(=O)N(C)C)cn1 (single isomer, unassigned) [Example 528]
D: CC(C)n1nc(C(=O)NCc2ccc(NC(=O)C3(F)CCN(C)CC3)cc2)c2c1[C@@H](C)CN(c1ccc(C(=O)N(C)C)cc1)C2
E: CCn1nc2c(c1C(=O)NCc1ccc(NC(=O)N(C)C)cc1)CN(c1ccc(C(=O)N(C)C)cn1)[C@@H](C)[C@@H]2C (stereo in doubt)
Rank the items above by pEC50, largest value first. Use the labels to give the ranking in the order requested.
A, D, C, B, E

1: CC(C)n1nc(C(=O)NCc2ccc(C(N)=O)cc2)c2c1[C@@H](C)CN(c1ccc(C(=O)N3Cc4cccnc4C3)cn1)C2
2: CC(C)n1nc(C(=O)NCc2ccc(NC(=O)N3CC4(CCN(C)CC4)C3)cc2)c2c1[C@@H](C)CN(c1ccc(-n3ccccc3=O)cn1)C2
3: CCn1nc(C(=O)NCc2ccc(NC(=O)N3CCN(C)CC3)cc2)c2c1C(C(F)(F)F)CN(c1ccc(C(=O)N(C)C)cn1)C2 (single isomer, unassigned) [Example 694]
4: CC(=O)N[C@H]1CCN(C(=O)c2ccc(N3CCc4c(c(C(=O)NCc5ccc(NC(=O)N(C)C)cc5)nn4C(C)C)C3)nc2)C1
Arrange these compounds by their pEC50, starting with the largest number. Use the labels to give the ranking in the order requested.
3, 1, 2, 4

====

TARGET_OF_ASSAY: STAT6 (Homo sapiens)
Construct: stably transfected HaCaT keratinocyte cell line, which expresses NanoLuc luciferase reporter gene under the transcriptional control of the STAT6 responsive promoter; endogenous in cells; host or cells: HaCaT keratinocyte reporter cell line (stably transfected with a NanoLuc reporter)
Sequence (P42226 1-847): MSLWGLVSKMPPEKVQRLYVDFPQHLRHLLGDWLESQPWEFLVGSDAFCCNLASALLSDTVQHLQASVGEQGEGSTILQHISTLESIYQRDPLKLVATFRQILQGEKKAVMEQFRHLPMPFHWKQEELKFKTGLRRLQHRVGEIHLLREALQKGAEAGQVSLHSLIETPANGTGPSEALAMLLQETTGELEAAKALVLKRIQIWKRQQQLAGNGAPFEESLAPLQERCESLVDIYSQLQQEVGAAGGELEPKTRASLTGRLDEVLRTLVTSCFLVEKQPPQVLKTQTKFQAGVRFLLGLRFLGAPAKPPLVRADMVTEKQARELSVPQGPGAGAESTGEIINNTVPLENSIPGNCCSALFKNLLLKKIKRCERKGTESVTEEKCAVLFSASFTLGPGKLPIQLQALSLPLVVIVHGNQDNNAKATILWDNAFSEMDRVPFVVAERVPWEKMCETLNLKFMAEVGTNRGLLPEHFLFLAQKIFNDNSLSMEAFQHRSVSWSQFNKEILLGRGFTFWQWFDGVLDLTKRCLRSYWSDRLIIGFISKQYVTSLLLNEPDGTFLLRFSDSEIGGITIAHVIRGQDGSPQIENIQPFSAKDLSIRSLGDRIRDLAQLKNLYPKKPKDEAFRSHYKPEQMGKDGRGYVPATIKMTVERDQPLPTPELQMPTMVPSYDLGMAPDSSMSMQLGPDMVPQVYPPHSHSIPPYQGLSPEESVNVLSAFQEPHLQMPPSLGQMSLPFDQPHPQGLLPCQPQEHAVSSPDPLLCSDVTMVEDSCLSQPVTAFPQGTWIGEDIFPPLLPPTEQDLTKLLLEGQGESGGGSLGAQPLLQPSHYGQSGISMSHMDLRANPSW
ASSAY_NAME: STAT6 Reporter Luciferase Assay (IL-13 stimulated HaCaT keratinocyte NanoLuc reporter cells)
Format: cell-based
RUN_CONDITIONS: IL-13 stimulated HaCaT STAT6 NanoLuc reporter cells; read-out: Reporter EC50
pEC50: −log10 of the molar value.
OBSERVATION_TYPE: pEC50

a: CC(C)n1nc(C(=O)NCc2ccc(NC(=O)N(C)C)cc2)c2c1CCN(c1ccc(C(=O)N3CCOCC3)cn1)C2
b: CC(C)n1nc(C(=O)NCc2ccc(NC(=O)N(C)C)cc2)c2c1[C@H](C)[C@@H](C)N(c1ccc(C(=O)N(C)C)cn1)C2 (single isomer, unassigned)
Kindly compare a with b and tell me which has the lower pEC50 figure. Answer by stating the label of the chosen item.
a
